Target: Opioid receptor μ (Homo sapiens, UniProt P35372)
Sequence (P35372 whole entry): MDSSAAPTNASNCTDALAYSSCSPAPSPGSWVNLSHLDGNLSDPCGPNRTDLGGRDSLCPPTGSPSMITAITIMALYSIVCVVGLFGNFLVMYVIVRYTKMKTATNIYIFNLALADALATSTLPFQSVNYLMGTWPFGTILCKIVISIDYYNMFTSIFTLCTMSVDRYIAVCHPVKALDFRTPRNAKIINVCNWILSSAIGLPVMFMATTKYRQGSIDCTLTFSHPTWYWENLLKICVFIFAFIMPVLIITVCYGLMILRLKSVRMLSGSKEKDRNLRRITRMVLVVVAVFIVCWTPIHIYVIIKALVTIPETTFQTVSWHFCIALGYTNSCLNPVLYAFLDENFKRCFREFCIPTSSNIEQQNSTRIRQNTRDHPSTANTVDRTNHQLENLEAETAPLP
pIC50: −log10 of the molar value.

{"COMPOUND": "COc1cc(C(F)(F)F)c(OC)cc1[C@@H]1CCCNC1 [(S)-11]", "pIC50": "< 5.00"}

----------
Test system: MDR1
Experiment: MDR1-MDCK II permeability assay
Assay type: in vitro ADME
Conditions: dog, MDCK-MDR1, pH 7.4, Table S6; read-out: Mean Recovery A to B
A collection of compounds and their measured recovery at […]
PARAMETER: recovery at […] (%)

{"COMPOUND": "COCCc1ccc(OCC(O)CNC(C)C)cc1 (stereo not drawn)", "VALUE MEASURED": 97}
{"COMPOUND": "CC(C)(C)NCC(O)COc1cccc2c1CC(O)C(O)C2 (stereo not drawn)", "VALUE MEASURED": 93}
{"COMPOUND": "COc1cc(C(F)(F)F)c(OC)cc1[C@@H]1CCCNC1 [(S)-11]", "VALUE MEASURED": 70}

----------
Molecular target: UniProt P28223
Sequence (P28223 whole entry): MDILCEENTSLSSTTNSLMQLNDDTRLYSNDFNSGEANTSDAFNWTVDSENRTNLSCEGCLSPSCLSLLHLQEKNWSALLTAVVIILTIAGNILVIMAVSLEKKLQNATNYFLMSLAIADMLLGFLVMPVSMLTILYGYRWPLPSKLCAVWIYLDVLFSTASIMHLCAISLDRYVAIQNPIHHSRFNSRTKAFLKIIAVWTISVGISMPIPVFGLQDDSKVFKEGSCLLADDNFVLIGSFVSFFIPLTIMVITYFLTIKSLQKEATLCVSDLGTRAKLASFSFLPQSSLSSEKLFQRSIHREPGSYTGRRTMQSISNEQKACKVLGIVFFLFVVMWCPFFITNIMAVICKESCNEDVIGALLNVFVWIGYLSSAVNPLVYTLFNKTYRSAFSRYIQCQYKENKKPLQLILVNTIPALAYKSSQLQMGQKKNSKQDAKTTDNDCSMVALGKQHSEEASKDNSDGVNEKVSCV
Assay: Ca2+/Fluo-4 assay, agonist mode, stable 5-HT2AR-HEK293 cells
Conditions: Table S2
PARAMETER: 5-HT2AR pEC50 ± S.E.M.

{"COMPOUND": "CCCCc1cc(OC)c(C2CCCNC2)cc1OC.Cl (stereo not drawn) [Compound 14eu]", "TARGET DESC": "UniProt P28223", "VALUE MEASURED": 6.57}
{"COMPOUND": "COc1cc(C2CCCNC2)ccc1C(F)(F)F.Cl (stereo not drawn) [Compound 23eu]", "TARGET DESC": "UniProt P28223", "VALUE MEASURED": 5.74}
{"COMPOUND": "CCc1cc(OC)c(C2CCCNC2)cc1OC.Cl (stereo not drawn) [Compound 13dis]", "TARGET DESC": "UniProt P28223", "VALUE MEASURED": 6.94}
{"COMPOUND": "COc1cc(C2CCCNC2)c(OC)cc1C#N (stereo not drawn) [Compound 10dis]", "TARGET DESC": "UniProt P28223", "VALUE MEASURED": 5.66}
{"COMPOUND": "COc1cc(C(F)(F)F)ccc1C1CCCNC1.Cl (stereo not drawn) [Compound 22eu]", "TARGET DESC": "UniProt P28223", "VALUE MEASURED": 7.16}
{"COMPOUND": "CCOc1cc(C(F)(F)F)c(OC)cc1C1CCCNC1.Cl (stereo not drawn) [Compound 24dis]", "TARGET DESC": "UniProt P28223", "VALUE MEASURED": 6.39}
{"COMPOUND": "COc1cc(C2CCCNC2)c(OC)cc1Cl (stereo not drawn) [Compound 8dis]", "TARGET DESC": "UniProt P28223", "VALUE MEASURED": 6.16}
{"COMPOUND": "Br.COc1cc(C2CCNC2)c(OC)cc1Br (stereo not drawn) [Compound 5eu]", "TARGET DESC": "UniProt P28223", "VALUE MEASURED": 8.28}
{"COMPOUND": "COc1cc(C2CNC2)c(OC)cc1Br", "TARGET DESC": "UniProt P28223", "VALUE MEASURED": 8.80}
{"COMPOUND": "COc1cc(C2CCCNC2)c(OC)cc1I (stereo not drawn) [Compound 9dis, 3-(4-Iodo-2,5-dimethoxyphenyl)piperidine]", "TARGET DESC": "UniProt P28223", "VALUE MEASURED": 6.58}
{"COMPOUND": "CCN1CCC[C@@H](c2cc(OC)c(C(F)(F)F)cc2OC)C1 [(S)-20]", "TARGET DESC": "UniProt P28223", "VALUE MEASURED": 5.82}
{"COMPOUND": "CCOc1cc(C(F)(F)F)c(OC)cc1C1CCCNC1.Cl (stereo not drawn) [Compound 24eu]", "TARGET DESC": "UniProt P28223", "VALUE MEASURED": 7.42}
{"COMPOUND": "COc1cc(C2CCCNC2)c(OC)cc1C.Cl (stereo not drawn) [Compound 12eu]", "TARGET DESC": "UniProt P28223", "VALUE MEASURED": 6.98}
{"COMPOUND": "COc1cc(C2CCCNC2)c(OC)cc1SC.Cl (stereo not drawn) [Compound 15dis]", "TARGET DESC": "UniProt P28223", "VALUE MEASURED": 6.75}
{"COMPOUND": "CCSc1cc(OC)c(C2CCCNC2)cc1OC.Cl (stereo not drawn) [Compound 16dis]", "TARGET DESC": "UniProt P28223", "VALUE MEASURED": 6.73}
{"COMPOUND": "COc1cc(C2CCCNC2)c(OC)cc1SC.Cl (stereo not drawn) [Compound 15eu]", "TARGET DESC": "UniProt P28223", "VALUE MEASURED": 7.59}
{"COMPOUND": "COc1cc(C2CCCNC2)c(OC)cc1C.Cl (stereo not drawn) [Compound 12dis]", "TARGET DESC": "UniProt P28223", "VALUE MEASURED": 6.58}
{"COMPOUND": "CCOc1cc(C2CCCNC2)c(OC)cc1C(F)(F)F.Cl (stereo not drawn) [Compound 25eu]", "TARGET DESC": "UniProt P28223", "VALUE MEASURED": 7.99}
{"COMPOUND": "CCCCc1cc(OC)c(C2CCCNC2)cc1OC.Cl (stereo not drawn) [Compound 14dis]", "TARGET DESC": "UniProt P28223", "VALUE MEASURED": 6.46}
{"COMPOUND": "CCOc1cc(C(F)(F)F)c(OCC)cc1C1CCCNC1.Cl (stereo not drawn) [Compound 26eu]", "TARGET DESC": "UniProt P28223", "VALUE MEASURED": 6.99}
{"COMPOUND": "CCOc1cc(C2CCCNC2)c(OC)cc1C(F)(F)F.Cl (stereo not drawn) [Compound 25dis]", "TARGET DESC": "UniProt P28223", "VALUE MEASURED": 6.50}

----------
Biological target: Bradykinin receptor B2 (Homo sapiens, UniProt P30411)
Sequence (P30411 whole entry): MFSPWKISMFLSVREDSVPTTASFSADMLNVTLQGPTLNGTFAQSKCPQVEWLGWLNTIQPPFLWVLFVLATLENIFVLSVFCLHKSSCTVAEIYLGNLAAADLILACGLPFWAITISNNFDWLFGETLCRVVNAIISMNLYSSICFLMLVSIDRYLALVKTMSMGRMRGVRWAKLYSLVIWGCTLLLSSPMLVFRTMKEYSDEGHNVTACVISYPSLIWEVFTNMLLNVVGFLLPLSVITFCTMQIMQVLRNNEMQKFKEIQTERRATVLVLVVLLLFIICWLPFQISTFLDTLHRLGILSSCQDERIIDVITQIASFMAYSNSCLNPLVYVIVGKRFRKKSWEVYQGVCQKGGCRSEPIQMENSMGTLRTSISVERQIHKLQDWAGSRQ

{"COMPOUND": "COc1cc(C(F)(F)F)c(OC)cc1[C@@H]1CCCNC1 [(S)-11]", "IC50": "> 10 µM"}

----------
Assay: LogP / log D determination, 1-octanol/phosphate buffer
Assay type: physicochemical
Conditions: pH 4.5, read-out: log D (pH4.5)

{"MOLECULE": "COc1cc(C(F)(F)F)c(OC)cc1[C@@H]1CCCNC1 [(S)-11]", "logD": -0.376}

----------
Molecular target: UniProt P08173
Sequence (P08173 whole entry): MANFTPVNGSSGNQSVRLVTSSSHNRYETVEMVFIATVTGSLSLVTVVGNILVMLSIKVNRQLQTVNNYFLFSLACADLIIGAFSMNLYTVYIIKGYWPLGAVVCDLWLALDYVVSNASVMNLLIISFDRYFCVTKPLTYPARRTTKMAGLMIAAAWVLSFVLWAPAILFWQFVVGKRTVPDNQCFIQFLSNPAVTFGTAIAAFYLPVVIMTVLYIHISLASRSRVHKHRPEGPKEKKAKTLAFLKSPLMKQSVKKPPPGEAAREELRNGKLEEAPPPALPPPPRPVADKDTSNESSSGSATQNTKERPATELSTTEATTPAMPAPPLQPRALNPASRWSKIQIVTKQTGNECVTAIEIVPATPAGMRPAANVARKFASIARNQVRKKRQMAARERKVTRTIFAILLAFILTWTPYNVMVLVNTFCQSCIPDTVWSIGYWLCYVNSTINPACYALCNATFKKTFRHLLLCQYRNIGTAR
pIC50: −log10 of the molar value.

{"COMPOUND": "COc1cc(C(F)(F)F)c(OC)cc1[C@@H]1CCCNC1 [(S)-11]", "pIC50": "5.00 to 6.00"}

----------
Biological target: β2 (adrenergic receptor) (Homo sapiens, UniProt P07550)
Sequence (P07550 whole entry): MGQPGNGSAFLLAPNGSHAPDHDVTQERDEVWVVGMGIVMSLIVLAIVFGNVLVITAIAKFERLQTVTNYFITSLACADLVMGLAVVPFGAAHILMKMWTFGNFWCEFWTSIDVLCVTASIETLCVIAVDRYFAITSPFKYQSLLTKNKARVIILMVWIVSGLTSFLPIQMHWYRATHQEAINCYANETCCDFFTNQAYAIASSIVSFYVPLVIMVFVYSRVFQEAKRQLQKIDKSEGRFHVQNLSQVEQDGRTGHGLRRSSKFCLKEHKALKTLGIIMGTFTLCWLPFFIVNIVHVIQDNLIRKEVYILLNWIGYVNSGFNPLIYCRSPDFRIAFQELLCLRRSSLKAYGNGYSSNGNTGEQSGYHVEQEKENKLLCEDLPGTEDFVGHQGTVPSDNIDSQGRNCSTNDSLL
pIC50: −log10 of the molar value.
PARAMETER: pIC50

{"MOLECULE": "COc1cc(C(F)(F)F)c(OC)cc1[C@@H]1CCCNC1 [(S)-11]", "VALUE MEASURED": "~5.00"}

----------
Biological target: Tachykinin receptor NK1 (Homo sapiens, UniProt P25103)
Sequence (P25103 whole entry): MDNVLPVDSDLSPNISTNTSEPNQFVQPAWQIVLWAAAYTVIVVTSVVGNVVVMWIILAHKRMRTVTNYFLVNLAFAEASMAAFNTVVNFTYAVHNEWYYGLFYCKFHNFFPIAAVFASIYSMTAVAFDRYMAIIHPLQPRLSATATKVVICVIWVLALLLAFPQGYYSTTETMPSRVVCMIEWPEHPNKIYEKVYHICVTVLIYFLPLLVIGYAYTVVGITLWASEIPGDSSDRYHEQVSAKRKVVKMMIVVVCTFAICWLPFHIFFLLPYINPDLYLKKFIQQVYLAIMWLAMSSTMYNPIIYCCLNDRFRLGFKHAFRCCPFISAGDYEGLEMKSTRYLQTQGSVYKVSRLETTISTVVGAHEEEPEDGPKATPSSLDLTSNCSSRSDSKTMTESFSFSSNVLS

{"COMPOUND": "COc1cc(C(F)(F)F)c(OC)cc1[C@@H]1CCCNC1 [(S)-11]", "TARGET DESC": "Tachykinin receptor NK1 (Homo sapiens, UniProt P25103)", "IC50": "> 10 µM"}

----------
Biological target: Nicotinic acetylcholine receptor α3β4 (Homo sapiens, UniProt P30926+P32297)
Construct: Eurofins
Sequence (P32297 32-505): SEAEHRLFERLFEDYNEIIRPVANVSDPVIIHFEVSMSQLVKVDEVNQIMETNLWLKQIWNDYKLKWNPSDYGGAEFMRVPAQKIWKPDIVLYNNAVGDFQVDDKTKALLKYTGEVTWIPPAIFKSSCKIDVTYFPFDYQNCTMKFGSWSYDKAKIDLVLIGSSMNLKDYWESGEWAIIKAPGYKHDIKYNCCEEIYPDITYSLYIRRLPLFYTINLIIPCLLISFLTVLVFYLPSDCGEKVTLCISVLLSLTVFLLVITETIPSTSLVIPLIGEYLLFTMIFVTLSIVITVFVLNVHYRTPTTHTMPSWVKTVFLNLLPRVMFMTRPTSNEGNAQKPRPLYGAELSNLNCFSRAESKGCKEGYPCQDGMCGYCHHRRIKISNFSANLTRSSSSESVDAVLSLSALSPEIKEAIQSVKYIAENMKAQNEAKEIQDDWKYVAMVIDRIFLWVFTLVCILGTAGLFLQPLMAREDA
Sequence (P30926 22-498): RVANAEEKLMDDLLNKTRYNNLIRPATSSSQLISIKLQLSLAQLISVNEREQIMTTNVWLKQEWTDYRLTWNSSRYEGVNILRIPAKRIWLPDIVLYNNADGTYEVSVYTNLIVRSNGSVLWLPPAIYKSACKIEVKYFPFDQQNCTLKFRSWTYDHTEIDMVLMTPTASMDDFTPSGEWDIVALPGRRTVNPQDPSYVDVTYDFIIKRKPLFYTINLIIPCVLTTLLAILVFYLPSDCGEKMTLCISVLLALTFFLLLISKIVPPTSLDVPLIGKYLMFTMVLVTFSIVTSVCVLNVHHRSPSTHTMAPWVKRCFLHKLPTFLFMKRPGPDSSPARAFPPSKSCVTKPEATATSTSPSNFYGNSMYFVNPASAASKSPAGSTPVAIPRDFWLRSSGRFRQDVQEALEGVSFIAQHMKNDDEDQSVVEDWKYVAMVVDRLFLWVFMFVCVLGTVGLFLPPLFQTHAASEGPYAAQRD
Test: radioligand competition binding, [125I]Epibatidine
PARAMETER: IC50

{"COMPOUND": "COc1cc(C(F)(F)F)c(OC)cc1[C@@H]1CCCNC1 [(S)-11]", "VALUE MEASURED": "~10 µM"}

----------
Biological target: Glucocorticoid receptor (Homo sapiens)
Sequence (P04150 whole entry): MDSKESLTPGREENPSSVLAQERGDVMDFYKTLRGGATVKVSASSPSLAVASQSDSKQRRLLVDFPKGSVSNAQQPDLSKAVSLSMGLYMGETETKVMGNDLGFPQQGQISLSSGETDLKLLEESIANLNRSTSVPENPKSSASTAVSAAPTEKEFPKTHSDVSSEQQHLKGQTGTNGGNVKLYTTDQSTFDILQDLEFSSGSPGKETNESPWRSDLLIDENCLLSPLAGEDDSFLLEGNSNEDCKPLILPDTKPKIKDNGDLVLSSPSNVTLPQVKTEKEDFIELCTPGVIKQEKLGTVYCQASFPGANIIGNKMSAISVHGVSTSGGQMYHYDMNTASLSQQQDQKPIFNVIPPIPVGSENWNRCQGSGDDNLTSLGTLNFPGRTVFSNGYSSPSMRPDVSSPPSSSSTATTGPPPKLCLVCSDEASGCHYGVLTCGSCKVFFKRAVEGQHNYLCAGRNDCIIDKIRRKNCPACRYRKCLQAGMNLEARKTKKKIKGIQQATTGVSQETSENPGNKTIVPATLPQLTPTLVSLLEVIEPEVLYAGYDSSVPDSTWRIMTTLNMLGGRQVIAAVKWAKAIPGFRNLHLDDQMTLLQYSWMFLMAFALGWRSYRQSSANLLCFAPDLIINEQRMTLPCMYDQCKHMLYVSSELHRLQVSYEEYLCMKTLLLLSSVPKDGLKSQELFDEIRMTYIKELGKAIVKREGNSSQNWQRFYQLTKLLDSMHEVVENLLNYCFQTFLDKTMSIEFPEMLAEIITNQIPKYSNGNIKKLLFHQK
pIC50: −log10 of the molar value.

{"MOLECULE": "COc1cc(C(F)(F)F)c(OC)cc1[C@@H]1CCCNC1 [(S)-11]", "TARGET DESC": "Glucocorticoid receptor (Homo sapiens)", "pIC50": "< 5.00"}

----------
Test system: MDR1 (P-gp)
Experiment: MDR1-MDCK II permeability assay
Format: in vitro ADME
Conditions: dog, MDCK-MDR1, pH 7.4; Figure 6

{"COMPOUND": "COc1cc(C(F)(F)F)c(OC)cc1[C@@H]1CCCNC1 [(S)-11]", "Papp A→B at […], 2 µM (×10⁻⁶ cm/s)": 18.6}
